# maps each entry to its GI50
Tested on: HCC 2998
assay overview: NCI tumour cell line growth inhibition, 48 h
Active and inactive are the calls of the source. Rule as the data show it: active = GI50 up to about 1.1 µM and inactive = higher.

[[record]]
compound = "Clc1cc2ns[s+]c2cc1Cl"
measured_result = "59.7 µM (inactive)"


Q) Determine its reported GI50: CC1CNC(c2cccc(-c3nc(-c4cccc(C5=NC(C)CN5)c4)nc(N(C)C)n3)c2)=N1 (stereo unspecified)
A) 1.13 µM (inactive)

Q) Supply recorded GI50 for C[C@]12CCC3c4ccc(O)cc4CC[C@H]3C1CC(=O)NC2=O (stereo partly specified) here.
A) > 10 µM (inactive)

Q) # return recorded GI50 for input c1ccc(-c2ccc(-c3ccc(C4=NCCN4)cc3)o2)cc1
A) 1.35 µM (inactive)

Q) Give the reported GI50 for this compound. Cn1c(=O)c2nc3c(=O)n(C)c(=O)n(CC(N)=O)c3nc2n(C)c1=O
A) > 100 µM (inactive)

Q) Note GI50 for the compound shown: CC(C)(CO)N1C(=O)c2ccccc2C1(O)c1ccc(Cl)cc1 (stereo unspecified)
A) > 100 µM (inactive)
